Assay: MTT assay, cell survival / CC50 in BHK-21 cells
Assay type: cell-based
Conditions: hamster, read-out: concentration of 50% cytotoxicity (CC50)
reported-endpoint: CC50 at 48 h

Fill blank: measured CC50 at 48 h of the compound CCOC(=O)C1=C(Nc2cc(C)cc(C)c2)OCC1=O [Compound 1] is ____.
> 500 µM

###

Each entry below carries its reported melting point.
Express the result in °C but write the number alone.

1. CCOC(=O)C1=C(Nc2cccc(Cl)c2)OCC1=O: 159.5

Now for another entry.
Recorded melting point for CCOC(=O)C1=C(Nc2cc(OC)cc(OC)c2)OCC1=O , please?
145.6
